All values here come from ChEMBL document CHEMBL5257079.

- ASSAY NOTES: Metabolic stability in mouse liver microsomes assessed as parent compound remaining after 30 mins
- Format: ADME, Microsome
- CONDITIONS: read-out: Stability
MEASURED METRIC: remaining at 0.5 h (%)
Answer with a number only, understood to be in %.

1) CC(C)(C)c1ccc(-n2cnc3c(NC(=O)Cc4ccc(C(=O)O)cc4)cccc32)cc1    69.5
2) CC(C)(C)c1ccc(-n2cnc3c(-c4ccc(C(=O)O)cc4)cccc32)cc1    36.9

I have this molecule here, `CC(C)(C)c1ccc(-n2cnc3c(NC(=O)c4ccc(C(=O)O)cc4)cccc32)cc1` , and I need its recorded remaining at 0.5 h.
37.9

---

- SYSTEM UNDER TEST: UniProt Q96RI1
- Sequence (Q96RI1 whole entry, the tested form may be a part): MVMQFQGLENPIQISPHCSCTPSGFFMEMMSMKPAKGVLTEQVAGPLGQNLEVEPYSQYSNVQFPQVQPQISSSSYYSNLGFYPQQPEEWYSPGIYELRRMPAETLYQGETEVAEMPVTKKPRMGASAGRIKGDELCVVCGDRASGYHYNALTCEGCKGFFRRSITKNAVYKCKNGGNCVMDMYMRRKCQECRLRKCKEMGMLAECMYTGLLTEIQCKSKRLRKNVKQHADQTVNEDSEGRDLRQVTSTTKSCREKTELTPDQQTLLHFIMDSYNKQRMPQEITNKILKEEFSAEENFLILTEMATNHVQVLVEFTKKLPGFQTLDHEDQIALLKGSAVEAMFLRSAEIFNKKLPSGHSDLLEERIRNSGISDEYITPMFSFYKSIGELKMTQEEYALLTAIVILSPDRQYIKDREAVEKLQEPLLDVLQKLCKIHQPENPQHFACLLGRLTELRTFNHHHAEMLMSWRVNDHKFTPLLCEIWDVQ
- ASSAY NOTES: Partial agonist activity at FXR-LBD-GST (unknown origin) by TR-FRET assay
- CONDITIONS: read-out: EC50
MEASURED METRIC: EC50 (nM)
Answer with a number only, understood to be in nM.

Example results:
1) CC(C)(C)c1ccc(-n2cnc3c(-c4ccc(C(=O)O)cc4)cccc32)cc1    510
2) CC(C)(C)c1ccc(-c2cccc3c2ncn3Cc2ccc(C(=O)O)cc2)cc1    760
3) CC(C)(C)c1ccc(-n2cnc3c(NC(=O)c4ccc(C(=O)O)cc4)cccc32)cc1    490

I have this compound here, `CC(C)(C)c1ccc(Cn2cnc3c(NC(=O)c4ccc(C(=O)O)cc4)cccc32)cc1` , and I need its recorded EC50.
140

I have this compound here, `CC(C)(C)c1ccc(Cn2cnc3c(-c4ccc(C(=O)O)cc4)cccc32)cc1` , and I need its recorded EC50.
140

I have this compound here, `CC(C)(C)c1ccc(-n2cnc3c(NC(=O)Cc4ccc(C(=O)O)cc4)cccc32)cc1` , and I need its recorded EC50.
250

I have this compound here, `CC(C)(C)c1ccc(Cn2cnc3c(NC(=O)Cc4ccc(C(=O)O)cc4)cccc32)cc1` , and I need its recorded EC50.
410
